tested.system: T1, GST-human NOGO-A56 (human, UniProt Q9NQC3 586-785)
T1 construct: also called hNOGO; recombinant human NOGO; not shown: Glutathione S-transferase (GST) tag encoded by vector pGEX-6P1, N-terminal to the NOGO-A fragment; the tag and linker se
T1 sequence: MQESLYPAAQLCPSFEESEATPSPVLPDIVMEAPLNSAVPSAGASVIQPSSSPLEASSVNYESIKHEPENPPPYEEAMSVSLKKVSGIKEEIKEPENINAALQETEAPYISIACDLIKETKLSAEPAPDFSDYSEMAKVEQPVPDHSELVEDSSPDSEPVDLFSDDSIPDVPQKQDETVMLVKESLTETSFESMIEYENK
experimental.protocol: SPR off-rate ranking (Biacore), CHO-K1 transfection supernatant over GST-human NOGO-A56 chip; single experiment
Listed binders paired with reported koff
Report the figure in s⁻¹ without appending any unit label.

H15L13 (antibody, human IgG1, kappa, V domains shown, Humanised 2A10; tested as CHO-K1 transfection supernatant; Human gamma-1 mutated constant region, human kappa) VH: QVQLVQSGAEVVKPGASVKLSCKASGYTFTSYWMHWVKQRPGQGLEWIGNINPSNGGTNYNEKFKSKATLTVDTSSSTAYMELSSLRSEDSAVYYCELGQGYWGQGTLVTVSS VL: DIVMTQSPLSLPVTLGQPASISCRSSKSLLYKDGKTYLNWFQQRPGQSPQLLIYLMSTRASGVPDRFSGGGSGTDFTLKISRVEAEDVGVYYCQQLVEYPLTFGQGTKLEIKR    0.00965

Continue with the binder presented below.
Record H18L13 (antibody, human IgG1, kappa, V domains shown, Humanised 2A10; tested as CHO-K1 transfection supernatant; Human gamma-1 mutated constant region, human kappa) VH: QVQLVQSGAEVVKPGASVKLSCKASGYTFTSYWMHWVKQRPGQGLEWIGNINPSNGGTNYNEKFKSKATLTVDKSSSTAYMELSSLRSEDSAVYYCELGQGYWGQGTLVTVSS VL: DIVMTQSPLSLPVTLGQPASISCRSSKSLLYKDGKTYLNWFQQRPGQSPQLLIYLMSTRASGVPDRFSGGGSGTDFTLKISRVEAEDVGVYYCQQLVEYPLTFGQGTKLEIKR . Reported koff: 0.00907
